The entries below come with measured EC50 values attached.
- subjectOfTest: T1, NCR3 on cell (on-cell binding in the affinity-maturation table) (human, UniProt O14931 19-201, limits assumed)
- T1 construct: On cell
- T1 sequence (looked up): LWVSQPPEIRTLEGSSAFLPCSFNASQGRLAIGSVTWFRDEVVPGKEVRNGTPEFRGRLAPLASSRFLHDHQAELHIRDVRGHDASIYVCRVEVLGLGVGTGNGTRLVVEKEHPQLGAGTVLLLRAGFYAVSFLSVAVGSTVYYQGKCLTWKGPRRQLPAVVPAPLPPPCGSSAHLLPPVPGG
- testMethodNotes: on-cell binding, Fab on NCR3
Report the value in nM with no unit label.

NCR3.18.11 (Fab, V domains shown, substitutions derived against parental HC3) VH: EVQLVESGGGLVQPGGSLRLSCAASGFNVSSSSIHWVRQAPGKGLEWVASISSSSGSTSYADSVKGRFTISADTSKNTAYLQMNSLRAEDTAVYYCARRLGSRYRSYYDSFYYAGMDYWGQGTLVTVSS VL: DIQMTQSPSSLSASVGDRVTITCRASQSVSSAVAWYQQKPGKAPKLLIYSASSLYSGVPSRFSGSRSGTDFTLTISSLQPEDFATYYCQQSSSSLITFGQGTKVEIKR | 1.47

Now look at this one.
Inquiry: Reported EC50 for NCR3.18.19 (Fab, V domains shown, substitutions derived against parental HC3) VH: EVQLVESGGGLVQPGGSLRLSCAASGFNVSSSSIHWVRQAPGKGLEWVASISSSSGSTSYADSVKGRFTISADTSKNTAYLQMNSLRAEDTAVYYCARRVSSPYMSYYDSFYYAGLDYWGQGTLVTVSS VL: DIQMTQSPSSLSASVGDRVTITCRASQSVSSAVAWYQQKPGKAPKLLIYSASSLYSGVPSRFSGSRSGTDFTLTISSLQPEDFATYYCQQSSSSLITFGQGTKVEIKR : what is it?
Reply text: 1.41
